- System: NCI/ADR-RES ovarian
- testName: NCI tumour cell line growth inhibition, 48 h
Field: TGI. Provide a value for each of the molecules that follow.

Recorded results for 2 molecules are shown here.
// lookup TGI | system=NCI/ADR-RES ovarian | key= "O=S1CCN(Cc2ccc(-c3ccc4ncnc(Nc5ccc(OCc6cccc(F)c6)c(Cl)c5)c4c3)o2)CC1"
> 25 µM

Proceed to "c1ccc(CSc2nc(N3CCCCC3)c3cn[nH]c3n2)cc1"
> 100 µM

// each molecule listed below needs its TGI
1. Cc1[nH]c2nccn2c(=O)c1CCCl
2. O=C(N/S(=N/S(=O)(=O)c1ccc(Br)cc1)C(Cl)(Cl)Cl)c1ccccc1 (stereo not given)

1: 58.1 µM; 2: > 100 µM

// lookup TGI | system=NCI/ADR-RES ovarian | key= "CS(=O)(=O)Nc1cc(-c2ccc3ncnc(Nc4ccc5c(cnn5Cc5cccc(F)c5)c4)c3c2)cnc1Cl"
> 78.4 µM

----------
- Test system: NCI-H522 lung
- testName: NCI tumour cell line growth inhibition, 48 h
Field: GI50. Provide a value for each of the compounds that follow.

For the compound shown here, "Cc1cccc2c(C(=O)O[C@H](C(N)=O)[C@]3(C)CO3)cccc12" , give the reported GI50.
1390 nM

Proceed to "COC1=CC(c2ccc[nH]2)=N/C1=C\c1[nH]c(C)c(C(=O)CCCCC(=O)NCc2ccccc2)c1C"
1950 nM

Proceed to "O=C1Nc2ccccc2/C1=C/C(=N/c1nnc(-c2ccccc2)s1)c1ccccc1"
449 nM

Proceed to "CCN1CCC(Oc2c(C#N)ncc3[nH]c4ncccc4c23)CC1"
15000 nM

Next compound, please.
For the compound shown here, "FC(F)(F)c1ccc(-c2cnc(Cl)nc2NC2CCCCCC2)cc1" , give the reported GI50.
45400 nM

----------
- Test system: HOP-62 NSCLC
- testName: NCI tumour cell line growth inhibition, 48 h; in the data active means GI50 below about 0.43 µM; inactive means the rest
Valid outcomes are listed here; reply with one: Y = active, N = inactive

// return assay outcome for "Cc1cc2c([nH]1)CSc1cc(S(=O)(=O)c3ccccc3)c(=O)[nH]c1-2"
N

Proceed to "COc1cc(-c2nc3ccccc3s2)ccc1OCCCCCOc1cc2c(cc1OC)C(=O)N1CCC[C@H]1C=N2"
Y

Proceed to "N#Cc1c(-c2ccccc2)cc(-c2ccccc2)n(CC(=O)NO)c1=O"
N

Proceed to CCCC(c1nnnn1C1CCCCC1)N1CCN(C(=O)c2ccco2)CC1 (stereo not given)
N

Then this molecule:
// return assay outcome for "COc1ccc(CCn2c3c(c4c(O)cccc42)C(=O)c2ccccc2-3)cc1OC"
N

----------
- Tested on: SK-MEL-5 melanoma
- testName: NCI tumour cell line growth inhibition, 48 h
Field: TGI. Provide a value for each of the compounds that follow.

Recorded results for 3 compounds are shown here.
For the compound shown here, "O=C(Nc1ccccc1-c1nn(CO)c(=S)n(CO)c1=O)C(F)(F)F" , give the reported TGI.
> 100 µM

Proceed to "COc1ccc(CCn2c3c(c4c(O)cccc42)C(=O)c2ccccc2-3)cc1OC"
> 60.3 µM

Proceed to "O=C1NC(N/N=C/c2c[nH]c3ccccc23)=N/C1=C\c1cccs1"
> 100 µM

Next compound, please.
For the compound shown here, CCCCCCCCc1ccc(OCCOCC[N+](C)(C)CC)cc1 (tested in a mixture with another compound) , give the reported TGI.
3.06 µM

----------
- System: SF-539 CNS
- testName: NCI tumour cell line growth inhibition, 48 h
Field: TGI. Provide a value for each of the compounds that follow.

// lookup TGI | system=SF-539 CNS | key= CC(C)CC(C(N)=O)C(=O)NC(Cc1ccccc1)NC(=O)CNC(=O)C(C)NC(=O)C(N)Cc1ccc(O)cc1 (centres undefined)
> 100 µM

Proceed to CCN(CC)CCC(=O)NC1c2ccccc2Oc2c(C)cccc21 (centres undefined)
> 100 µM

Proceed to "N#CCCN(CCCN(C(=O)N(c1ccccc1)c1ccccc1)c1ccccc1)C(=O)Nc1ccccc1"
> 100 µM

Proceed to "CCN(Cc1ccncc1)c1ccc(CO)c(Cl)c1"
> 100 µM

// each compound listed below needs its TGI
1. O=C(c1ccccc1)C(C(=O)c1ccccc1)c1nc2ccccc2sc1=O
2. COc1ccc(/C=C(\C#N)c2ccc(OC)cc2)cc1
3. COc1cc(-c2nc3ccccc3s2)ccc1OCCCCCOc1cc2c(cc1OC)C(=O)N1CCC[C@H]1C=N2
4. CC[C@@]1(O)C[C@H](OC2CC(N(C)C)C(OC3CC(O)C(OC4CC(O)C(O)C(C)O4)C(C)O3)C(C)O2)c2c(cc3c(c2O)C(=O)c2c(O)ccc(O)c2C3=O)[C@H]1C(=O)OC (some centres undefined)
5. C=CN1CCN(c2ccccc2)P1(=O)Oc1ccccc1 (centres undefined)

> 25 µM
> 100 µM
0.286 µM
0.341 µM
> 100 µM

----------
- Tested on: MDA-MB-435
experimentalEndpoint: GI50

// each compound listed below needs its GI50
1. O=C1/C(=C/c2ccc(Cl)cc2)COc2ccc(O)cc21
2. COc1ccc(Nc2nccc(Nc3ccc4[nH]ncc4c3)n2)cc1
3. Cc1ccc(-c2c(C#N)[n+](=O)c3cc(Cl)c(Cl)cc3n2[O-])cc1

1: 2.77 µM; 2: 2.1 µM; 3: 17.2 µM

----------
Field: GI50. Provide a value for each of the compounds that follow.
- Tested on: A498 renal
- testName: NCI tumour cell line growth inhibition, 48 h

Recorded results for 3 compounds are shown here.
For the compound shown here, CCCCCCCCc1ccc(OCCOCC[N+](C)(C)CC)cc1 (tested in a mixture with another compound) , give the reported GI50.
9.16 µM

Proceed to Clc1ccc(CCC(Cn2ccnc2)Sc2c(Cl)cccc2Cl)cc1 (centres undefined)
1.59 µM

Proceed to "Cc1cccc2c(C(=O)O[C@H](C(N)=O)[C@]3(C)CO3)cccc12"
13.3 µM

More entries:
For the compound shown here, "C=C1C(=O)O[C@H]2[C@H]1CC/C(COC(=O)CCCCCCC(=O)OC/C1=C/CC[C@@]3(C)O[C@H]3[C@H]3OC(=O)C(=C)[C@@H]3CC1)=C\CC[C@@]1(C)O[C@@H]21" , give the reported GI50.
15.3 µM

----------
- Tested on: MDA-MB-231 breast
- testName: NCI tumour cell line growth inhibition, 48 h; in the data active = GI50 below about 0.43 µM; inactive = the rest
Valid outcomes are listed here; reply with one: active, inactive

These recorded examples may help you get a feel for the data.
// return assay outcome for CCCCCCCCc1ccc(OCCOCC[N+](C)(C)CC)cc1 (tested in a mixture with another compound)
inactive

Proceed to "COc1cc(-c2nc3ccc(C)cc3[nH]2)ccc1OCC(=O)N=Nc1c(O)[nH]c2ccc(Cl)cc12"
inactive

Proceed to CCCC(c1nnnn1C1CCCCC1)N1CCN(C(=O)c2ccco2)CC1 (stereo not given)
inactive

Proceed to "COc1cc(-c2nc3ccccc3s2)ccc1OCCCCCOc1cc2c(cc1OC)C(=O)N1CCC[C@H]1C=N2"
active

Proceed to "O=S1CCN(Cc2ccc(-c3ccc4ncnc(Nc5ccc(OCc6cccc(F)c6)c(Cl)c5)c4c3)o2)CC1"
inactive

Proceed to "CS(=O)(=O)Nc1cc(-c2ccc3ncnc(Nc4ccc5c(cnn5Cc5cccc(F)c5)c4)c3c2)cnc1Cl"
inactive

Proceed to "Cc1cccc2c(C(=O)O[C@H](C(N)=O)[C@]3(C)CO3)cccc12"
inactive

Proceed to "COc1ccc(/C=C/c2nnc(/C=C/c3ccc(OC)c(OC)c3)o2)cc1OC"
inactive

Proceed to "CC(=O)c1nc2ccccc2n1CCN1CCN(C)CC1"
inactive

Then this molecule:
// return assay outcome for "C=C(C)C(=O)Oc1ccc(N=Nc2ccc(C)cc2)ccc1=O"
inactive

----------
- Tested on: SK-OV-3 ovarian
- testName: NCI tumour cell line growth inhibition, 48 h
experimentalEndpoint: TGI

Recorded results for 5 compounds are shown here.
// lookup TGI | system=SK-OV-3 ovarian | key= "C[C@H]1COC(c2ccccn2)=N1"
> 100 µM

Proceed to "NN/C(=N\S(=O)(=O)c1cc2ccccc2o1)Nc1ccc(Cl)cc1"
> 100 µM

Proceed to O=C(O)CC(O)(c1ccccc1C(=O)O)c1cccc2ccccc12 (stereo unspecified)
> 100 µM

Proceed to "O=C1NC(N/N=C/c2c[nH]c3ccccc23)=N/C1=C\c1cccs1"
> 100 µM

Proceed to "CCOc1nc(OCC)nc(-c2cccn2-c2ccccc2)n1"
75 µM

// each compound listed below needs its TGI
1. O=C(NCCCCNC(=O)OCc1ccc2c(Cl)cc(Cl)c(O)c2n1)OCc1ccc2c(Cl)cc(Cl)c(O)c2n1
2. CN(C)CC1CCC(=C2CCCC2)C1=O (stereo unspecified)
3. O=C(c1ccccc1)C(C(=O)c1ccccc1)c1nc2ccccc2sc1=O

1. > 100 µM
2. > 100 µM
3. > 25 µM

// each compound listed below needs its TGI
1. NS(=O)(=O)N(c1cc(C(F)(F)F)cc(C(F)(F)F)c1)C1CCN(Cc2ccc(F)cc2)CC1
2. COc1ccc(N2C(=O)C3CC(c4ccc(C)cc4)c4c([nH]c5ccccc45)C3C2=O)cc1 (stereo unspecified)
3. Cc1cccc(NC(=O)/C=C/c2ccccc2)c1C

1. 23.3 µM
2. 93 µM
3. > 100 µM

// each compound listed below needs its TGI
1. N=c1oc2c(O)c(O)ccc2cc1C(N)=O
2. COc1cc2cc3c4c(cc(OC)c(OC)c4c2cc1OC)CCN3
3. O=C(O)c1cc2ccccc2c(N=Nc2ccc(S(=O)(=O)O)cc2)c1O
4. COCN1C(=O)C2CC(/C=C/C(N)=O)=CN2C(=O)c2ccccc21 (stereo unspecified)
5. Oc1ccc(-c2nn3c(CCCCCCCCc4nnc5sc(-c6ccc(O)cc6)nn45)nnc3s2)cc1
6. O=C(c1c2c(cc3c1CC1(Cc4cc5c(cc4C1)CCCC5)C3)CCCC2)C(Br)Br
7. C=C1C(=O)O[C@H]2[C@H]1CC/C(COC(=O)CCCCCCC(=O)OC/C1=C/CC[C@@]3(C)O[C@H]3[C@H]3OC(=O)C(=C)[C@@H]3CC1)=C\CC[C@@]1(C)O[C@@H]21
8. C=C1CC(Cn2ccc(=O)[nH]c2=O)(c2ccc(OC)cc2)OC1=O (stereo unspecified)

> 100 µM
> 100 µM
> 100 µM
> 100 µM
> 100 µM
96.9 µM
> 100 µM
> 92.9 µM

// each compound listed below needs its TGI
1. C=CN1CCN(c2ccccc2)P1(=O)Oc1ccccc1 (stereo unspecified)
2. Cc1ccc(Nc2nc3nc[nH]c3c(=O)[nH]2)cc1CO

1. > 100 µM
2. 27.7 µM
